Target: NHERF4_4, Q86UT5
Sequence (Q86UT5 464-550): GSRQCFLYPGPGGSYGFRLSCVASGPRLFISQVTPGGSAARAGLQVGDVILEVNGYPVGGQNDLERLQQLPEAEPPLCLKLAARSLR
Assay: holdup assay
Design: key: below the threshold = too weak to quantify, mostly under pKd 3.1 to 4
Conditions: plain residues with an end cap or a label only (N-terminal biotin on a linker: ado-ado)
result.type: pKd

{"binder": "APIAGFSSFV [SDK2, Q58EX2]", "result.type": "pKd", "endpoint.value": "below the threshold"}
{"binder": "LESTTVGTSV [KARS1, Q15046]", "result.type": "pKd", "endpoint.value": "below the threshold"}
{"binder": "RSSGGDDFWF [KCNV1, Q6PIU1]", "result.type": "pKd", "endpoint.value": 4.43}
{"binder": "DDASLPVSDV [PLEKHA1, Q9HB21]", "result.type": "pKd", "endpoint.value": "below the threshold"}
